Data provenance: paper PMC8279417

# measured_target: ERα (Homo sapiens, UniProt P03372)
# Sequence (P03372 311-547 limits assumed): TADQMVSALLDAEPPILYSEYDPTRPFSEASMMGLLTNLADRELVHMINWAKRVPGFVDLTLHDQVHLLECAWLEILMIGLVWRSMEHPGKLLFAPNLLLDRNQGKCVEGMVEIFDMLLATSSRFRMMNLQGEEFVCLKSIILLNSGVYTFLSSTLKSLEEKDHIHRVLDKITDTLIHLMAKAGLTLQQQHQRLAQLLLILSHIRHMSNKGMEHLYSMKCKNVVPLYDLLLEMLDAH
# condition_label: relative binding affinity compared to E2 (100%)
Think of 20% as a floor: if RBA ERα stands on it or above, it is 1 (yes); beneath it, 0 (no).

Quick check: does CCC(=C(c1ccc(O)cc1)c1ccc(/C=C/C(=O)NCCCNC(=O)CCc2nc3ccc(OC)cc3[nH]2)cc1)c1ccccc1 (mixture of isomers) have RBA ERα greater than or equal to 20%?
0 (no)

Quick check: does CCC(=C(c1ccc(O)cc1)c1ccc(/C=C/C(=O)NCCCCCNC(=O)CCc2nc3ccc(OC)cc3[nH]2)cc1)c1ccccc1 (mixture of isomers) have RBA ERα greater than or equal to 20%?
1 (yes)

Quick check: does CCC(=C(c1ccc(O)cc1)c1ccc(/C=C/C(=O)NCCCCCNC(=O)CCc2nc3cc(O)ccc3[nH]2)cc1)c1ccccc1 (mixture of isomers) have RBA ERα greater than or equal to 20%?
1 (yes)

Quick check: does CCC(=C(c1ccc(O)cc1)c1ccc(/C=C/C(=O)NCCNC(=O)CCc2nc3cc(OC)ccc3[nH]2)cc1)c1ccccc1 (mixture of isomers) have RBA ERα greater than or equal to 20%?
0 (no)

Quick check: does CCC(=C(c1ccc(O)cc1)c1ccc(/C=C/C(=O)NCCCNC(=O)CCCn2c(=S)[nH]c3ccccc3c2=O)cc1)c1ccccc1 (mixture of isomers) have RBA ERα greater than or equal to 20%?
0 (no)

----------
# measured_target: ERβ (Homo sapiens, UniProt Q92731)
# Sequence (Q92731 264-498 limits assumed): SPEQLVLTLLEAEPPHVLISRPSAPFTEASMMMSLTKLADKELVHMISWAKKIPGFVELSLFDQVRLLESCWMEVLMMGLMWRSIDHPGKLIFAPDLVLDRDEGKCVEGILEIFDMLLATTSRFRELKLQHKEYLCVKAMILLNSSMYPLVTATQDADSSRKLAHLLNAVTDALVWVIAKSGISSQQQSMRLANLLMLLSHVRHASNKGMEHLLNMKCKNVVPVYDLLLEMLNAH
# condition_label: relative binding affinity compared to E2 (100%)
For each entry below, report its RBA ERβ value.
Quote the value and follow it with the unit of measurement.

Lab book: RBA ERβ of CCC(=C(c1ccc(O)cc1)c1ccc(/C=C/C(=O)NCCCNC(=O)CCc2nc3cc(O)ccc3[nH]2)cc1)c1ccccc1 (mixture of isomers) noted as 19.7%

Lab book: RBA ERβ of CCC(=C(c1ccc(O)cc1)c1ccc(/C=C/C(=O)NCCCNC(=O)c2ccc(N3CCN(C(=O)CCCCCCCn4c(=S)[nH]c5ccccc5c4=O)CC3)cc2)cc1)c1ccccc1 (mixture of isomers) noted as 10.9%

Lab book: RBA ERβ of C[C@]12CC[C@@H]3c4ccc(O)cc4C[C@@H](CCCCCCCCC[S+]([O-])CCCC(F)(F)C(F)(F)F)[C@H]3[C@@H]1CC[C@@H]2O (stereo partly shown) [fulvestrant, reference compound] noted as 10.0%

Lab book: RBA ERβ of CCC(=C(c1ccc(O)cc1)c1ccc(/C=C/C(=O)NCCCCCNC(=O)CCc2nc3ccc(OC)cc3[nH]2)cc1)c1ccccc1 (mixture of isomers) noted as 9.5%

Lab book: RBA ERβ of CCC(=C(c1ccc(O)cc1)c1ccc(/C=C/C(=O)NCCCNC(=O)CCc2nc3ccc(OC)cc3[nH]2)cc1)c1ccccc1 (mixture of isomers) noted as 24.7%

Lab book: RBA ERβ of CCC(=C(c1ccc(O)cc1)c1ccc(/C=C/C(=O)NCCCCNC(=O)CCc2nc3cc(O)ccc3[nH]2)cc1)c1ccccc1 (mixture of isomers) noted as 26.2%

Lab book: RBA ERβ of CCC(=C(c1ccc(O)cc1)c1ccc(/C=C/C(=O)NCCCNC(=O)CCCn2c(=S)[nH]c3ccccc3c2=O)cc1)c1ccccc1 (mixture of isomers) noted as 5.9%

Lab book: RBA ERβ of CCC(=C(c1ccc(O)cc1)c1ccc(/C=C/C(=O)NCCCCCNC(=O)CCc2nc3cc(O)ccc3[nH]2)cc1)c1ccccc1 (mixture of isomers) noted as 19.5%

Lab book: RBA ERβ of CCC(=C(c1ccc(O)cc1)c1ccc(/C=C/C(=O)NCCCCCCNC(=O)CCc2nc3cc(OC)ccc3[nH]2)cc1)c1ccccc1 (mixture of isomers) noted as 14.3%

Lab book: RBA ERβ of CCC(=C(c1ccc(O)cc1)c1ccc(/C=C/C(=O)O)cc1)c1ccccc1 (mixture of isomers) [GW7604, reference compound] noted as 27.1%

Lab book: RBA ERβ of CCC(=C(c1ccc(O)cc1)c1ccc(/C=C/C(=O)NCCCCCCNC(=O)CCc2nc3cc(O)ccc3[nH]2)cc1)c1ccccc1 (mixture of isomers) noted as 9.5%

Lab book: RBA ERβ of CCC(=C(c1ccc(O)cc1)c1ccc(/C=C/C(=O)NCCNC(=O)CCc2nc3cc(OC)ccc3[nH]2)cc1)c1ccccc1 (mixture of isomers) noted as 15.2%

Lab book: RBA ERβ of CCC(=C(c1ccc(O)cc1)c1ccc(/C=C/C(=O)NCCCNC(=O)c2ccc(N3CCN(C(=O)CCCn4c(=S)[nH]c5ccccc5c4=O)CC3)cc2)cc1)c1ccccc1 (mixture of isomers) noted as 4%
